# tested-on: Casein kinase II subunit alpha' (Homo sapiens, UniProt P19784)
# Sequence (P19784 whole entry, the tested form may be a part): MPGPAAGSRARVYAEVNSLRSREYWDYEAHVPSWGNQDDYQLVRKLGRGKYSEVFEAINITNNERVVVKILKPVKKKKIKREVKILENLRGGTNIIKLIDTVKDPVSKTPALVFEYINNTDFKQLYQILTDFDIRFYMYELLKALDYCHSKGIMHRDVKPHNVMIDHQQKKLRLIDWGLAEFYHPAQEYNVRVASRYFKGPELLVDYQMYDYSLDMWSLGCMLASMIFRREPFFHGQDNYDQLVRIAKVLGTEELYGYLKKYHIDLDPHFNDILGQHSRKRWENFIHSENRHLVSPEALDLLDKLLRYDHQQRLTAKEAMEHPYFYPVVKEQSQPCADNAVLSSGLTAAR
# test-name: Inhibition of human CSNK2A2 expressed in HEK293 cells incubated for 2 hrs by NanoBRET assay
# Assay type: cell-based
assay-metric: pIC50
Answers are plain numbers, as −log10 of the molar value.

Measured pIC50 for this entry CCN(CCN)c1ccc(Nc2cc(NC3CC3)n3ncc(C#N)c3n2)cc1-n1cnnc1 on Casein kinase II subunit alpha' (Homo sapiens, UniProt P19784): 6.50

====

Would you kindly list log10(IC50) for each of these compounds?
# tested-on: Casein kinase II subunit alpha' (Homo sapiens, UniProt P19784)
# test-name: Inhibition of NLuc-fused CSNK2A2 (unknown origin) expressed in HEK293 cells incubated for 2 hrs by NanoBRET assay
# Format: cell-based
// stored as log10 of IC50 expressed in nM

N#Cc1cnn2c(NC3COC3)cc(Nc3cccc(-n4cnnc4)c3)nc12
2.40
CCN(CCN)c1ccc(Nc2cc(NC3CC3)n3ncc(C#N)c3n2)cc1-n1cnnc1
2.50

Fill in log10(IC50) for each of the 5 compounds listed.
1. CNCCN(C)c1ccc(Nc2cc(NC3CC3)n3ncc(C#N)c3n2)cc1-n1cnnc1
2. N#Cc1cnn2c(NC3CC3)cc(Nc3cc(-n4cnnc4)ccc3F)nc12
3. CC(C)(C#N)c1cccc(Nc2cc(NC3CC3)n3ncc(C#N)c3n2)c1
4. CN(CCN1CCCC1)c1ccc(Nc2cc(NC3CC3)n3ncc(C#N)c3n2)cc1-n1cnnc1
5. CN[C@H]1CCCN(c2ccc(Nc3cc(NC4CC4)n4ncc(C#N)c4n3)cc2-n2cnnc2)C1

Solution:
[2.10, 0.50, 2.90, 1.70, 2.10]

Fill in log10(IC50) for each of the 2 compounds listed.
1. C[C@@H](N)CN(C)c1ccc(Nc2cc(NC3CC3)n3ncc(C#N)c3n2)cc1-n1cnnc1
2. CNCCn1ccc(Nc2cc(Nc3cccc(-n4cnnc4)c3)nc3c(C#N)cnn23)n1

Solution:
1: 2.40; 2: 1.90

Fill in log10(IC50) for each of the 3 compounds listed.
1. N#Cc1cnn2c(Nc3cn(CCN4CCOCC4)cn3)cc(Nc3cccc(-n4cnnc4)c3)nc12
2. N#Cc1cnn2c(NC3CC3)cc(Nc3ccnc(-n4cnnc4)c3)nc12
3. CC(C)(O)Cc1cccc(Nc2cc(NC3CC3)n3ncc(C#N)c3n2)c1

Solution:
1: 3.70; 2: 1.00; 3: 2.60

====

# tested-on: Casein kinase II subunit alpha' (Homo sapiens)
# test-name: Inhibition of CSNK2A2 (unknown origin) in presence of ATP by Eurofins radiometric enzymatic assay
assay-metric: pIC50
One number for each entry, as −log10 of the molar value.

Measured pIC50 for this entry CCN(CCN)c1ccc(Nc2cc(NC3CC3)n3ncc(C#N)c3n2)cc1-n1cnnc1 on Casein kinase II subunit alpha' (Homo sapiens): 9.18

====

# tested-on: Dual specificity protein kinase CLK4 (Homo sapiens)
# Sequence (Q9HAZ1 whole entry): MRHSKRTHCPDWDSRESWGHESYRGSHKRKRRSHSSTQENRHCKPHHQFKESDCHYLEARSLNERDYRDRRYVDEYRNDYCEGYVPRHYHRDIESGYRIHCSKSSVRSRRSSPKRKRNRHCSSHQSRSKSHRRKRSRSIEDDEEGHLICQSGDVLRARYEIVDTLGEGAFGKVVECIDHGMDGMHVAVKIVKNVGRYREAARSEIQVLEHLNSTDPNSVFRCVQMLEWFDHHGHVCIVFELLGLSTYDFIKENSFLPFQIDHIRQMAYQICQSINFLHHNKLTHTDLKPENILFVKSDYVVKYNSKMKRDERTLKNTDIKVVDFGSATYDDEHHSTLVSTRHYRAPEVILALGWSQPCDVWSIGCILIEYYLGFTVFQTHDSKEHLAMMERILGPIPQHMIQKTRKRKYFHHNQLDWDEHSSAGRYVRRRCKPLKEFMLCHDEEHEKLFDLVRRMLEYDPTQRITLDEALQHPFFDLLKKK
# test-name: Inhibition of human CLK4 expressed in HEK293 cells incubated for 2 hrs by NanoBRET assay
# Type: cell-based
assay-metric: IC50

For CCN(CCN)c1ccc(Nc2cc(NC3CC3)n3ncc(C#N)c3n2)cc1-n1cnnc1 the compound record lists IC50 as 2.51 µM

====

# tested-on: Casein kinase II subunit alpha' (Homo sapiens, UniProt P19784)
# test-name: Inhibition of NLuc-fused CSNK2A2 (unknown origin) expressed in digitonin-permeabilized HEK293 cells incubated for 25 mins by NanoBRET assay
# Assay type: cell-based
assay-metric: IC50 (nM)
Numbers only, in nM.

For CCN(CCN)c1ccc(Nc2cc(NC3CC3)n3ncc(C#N)c3n2)cc1-n1cnnc1 the molecule record lists IC50 as 80

====

# tested-on: Phosphorylase b kinase gamma catalytic chain, skeletal muscle/heart isoform (Homo sapiens, UniProt Q16816)
# Sequence (Q16816 whole entry, canonical isoform): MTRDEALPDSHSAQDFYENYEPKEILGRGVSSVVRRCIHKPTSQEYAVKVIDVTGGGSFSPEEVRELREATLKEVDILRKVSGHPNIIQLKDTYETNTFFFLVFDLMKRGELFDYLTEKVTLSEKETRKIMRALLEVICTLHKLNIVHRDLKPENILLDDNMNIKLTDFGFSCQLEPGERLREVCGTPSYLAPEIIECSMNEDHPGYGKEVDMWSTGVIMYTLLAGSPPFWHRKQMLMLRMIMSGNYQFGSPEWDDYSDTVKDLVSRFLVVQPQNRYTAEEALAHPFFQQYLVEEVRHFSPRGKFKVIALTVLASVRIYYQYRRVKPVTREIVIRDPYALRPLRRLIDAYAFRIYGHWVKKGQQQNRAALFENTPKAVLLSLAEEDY
# test-name: Inhibition of human PHKG1 expressed in HEK293 cells incubated for 2 hrs by NanoBRET assay
assay-metric: IC50 (µM)
Numbers only, in µM.

For CCN(CCN)c1ccc(Nc2cc(NC3CC3)n3ncc(C#N)c3n2)cc1-n1cnnc1 the compound record lists IC50 as 6.31

====

# tested-on: Casein kinase II subunit alpha (Homo sapiens, UniProt P68400)
# Sequence (P68400 whole entry): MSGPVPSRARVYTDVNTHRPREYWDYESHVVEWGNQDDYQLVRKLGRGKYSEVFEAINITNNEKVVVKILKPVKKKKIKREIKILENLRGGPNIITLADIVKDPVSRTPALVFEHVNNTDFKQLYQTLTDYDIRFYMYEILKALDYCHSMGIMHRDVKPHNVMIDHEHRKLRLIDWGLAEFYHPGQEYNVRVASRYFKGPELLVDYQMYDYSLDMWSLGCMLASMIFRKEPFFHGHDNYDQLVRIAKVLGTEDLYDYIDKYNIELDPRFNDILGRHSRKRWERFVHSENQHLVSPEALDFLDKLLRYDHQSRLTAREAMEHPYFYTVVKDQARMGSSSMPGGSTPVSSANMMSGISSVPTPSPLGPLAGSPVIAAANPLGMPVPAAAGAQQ
# test-name: Inhibition of CSNK2A1 (unknown origin) in presence of ATP by Eurofins radiometric enzymatic assay
assay-metric: IC50 (nM)
Answers are plain numbers, in nM.

For CCN(CCN)c1ccc(Nc2cc(NC3CC3)n3ncc(C#N)c3n2)cc1-n1cnnc1 the compound record lists IC50 as 1.7

====

# test-name: Kinetic solubility of compound in PBS at pH 7.4 incubated for 24 hrs by HPLC analysis
# Type: physicochemical
# conditions-used: buffer, pH 7.4, 24 h
Would you kindly list Kinetic_solubility for each of these molecules?
Answers are plain numbers, in µg/mL.

Check out these entries, answers already filled in.
COCCNc1ccc(Nc2cc(NC3CC3)n3ncc(C#N)c3n2)cc1-n1cnnc1
0.8
C[C@@H](N)CN(C)c1ccc(Nc2cc(NC3CC3)n3ncc(C#N)c3n2)cc1-n1cnnc1
62
CC(=O)Nc1cccc(Nc2cc(NC3CC3)n3ncc(C#N)c3n2)c1
2.8
N#Cc1cnn2c(NC3CC3)cc(Nc3ccnc(-n4cnnc4)c3)nc12
0.27

Fill in Kinetic_solubility for each of the 3 molecules listed.
1. N#Cc1cnn2c(NC3CC3)cc(Nc3ccc(N4CC[C@H](N)C4)c(-n4cnnc4)c3)nc12
2. C[C@H](N)CN(C)c1ccc(Nc2cc(NC3CC3)n3ncc(C#N)c3n2)cc1-n1cnnc1
3. N#Cc1cnn2c(NC3CCC3)cc(Nc3cccc(-n4cnnc4)c3)nc12

Solution:
1. 49
2. 50
3. 0.18

====

Would you kindly list Kinetic_solubility for each of these compounds?
# test-name: Kinetic solubility of compound in PBS at pH 7.4 incubated for 24 hrs by HPLC analysis
# Type: physicochemical
# conditions-used: buffer, pH 7.4, 24 h
Answers are plain numbers, in µg/mL.

N#Cc1cnn2c(NC3CC3)cc(Nc3cc(-n4cnnc4)ccn3)nc12
1.2
CN(CCN1CCOCC1)c1ccc(Nc2cc(NC3CC3)n3ncc(C#N)c3n2)cc1-n1cnnc1
25
CN(C)CCn1cnc(Nc2cc(Nc3cccc(-n4cnnc4)c3)nc3c(C#N)cnn23)c1
30

Turning now to a further compound:
For N#Cc1cnn2c(Nc3cn(CCN4CCCC4)cn3)cc(Nc3cccc(-n4cnnc4)c3)nc12 the compound record lists Kinetic_solubility as 37

====

# tested-on: Casein kinase II subunit alpha' (Homo sapiens, UniProt P19784)
# test-name: Inhibition of NLuc-fused CSNK2A2 (unknown origin) expressed in HEK293 cells incubated for 2 hrs by NanoBRET assay
# Type: cell-based
Friendly reminder: IC50 below 200 nM is Met, at or above is Not met.

N#Cc1cnn2c(NCC3CCOC3)cc(Nc3cccc(-n4cnnc4)c3)nc12 (configuration not stated)
Not met

Turning now to a further record.
Exercise: Here's an entry: Cn1cc(CNc2cc(Nc3cccc(-n4cnnc4)c3)nc3c(C#N)cnn23)cn1 . Is its IC50 below 200 nM?
Solution: Not met

====

Would you kindly list Activity for each of these compounds?
# test-name: Cytotoxicity against human A549-ACE2 cells assessed as cell viability at 1 uM incubated for 48 hrs by CellTiter-Glo2 assay relative to control
# Assay type: toxicity, cell-based
# conditions-used: a549-ace2, 48 h
Give bare numbers, in %.

Check out these entries, answers already filled in.
N#Cc1cnn2c(NC3CC3)cc(Nc3cc(-n4cnnc4)ccc3F)nc12
59
CN(CCN)c1ccc(Nc2cc(NC3CC3)n3ncc(C#N)c3n2)cc1-n1cnnc1
87

Fill in Activity for each of the 3 compounds listed.
1. N#Cc1cnn2c(NC3CCC3)cc(Nc3cccc(-n4cnnc4)c3)nc12
2. C[C@@H](N)CN(C)c1ccc(Nc2cc(NC3CC3)n3ncc(C#N)c3n2)cc1-n1cnnc1
3. N#Cc1cnn2c(NC3CC3)cc(Nc3cc(-n4cnnc4)ccn3)nc12

Solution:
[93, 91, 96]

Fill in Activity for each of the 4 compounds listed.
1. N#Cc1cnn2c(NC3CC3)cc(Nc3ccnc(-n4cnnc4)c3)nc12
2. N#Cc1cnn2c(NC3CC3)cc(Nc3cccc(-n4cnnc4)c3)nc12
3. N#Cc1cnn2c(NC3CC3)cc(Nc3ccc(N4CC[C@H](N)C4)c(-n4cnnc4)c3)nc12
4. N#Cc1cnn2c(NC3CC3)cc(Nc3cccc(-c4cnn[nH]4)c3)nc12

Solution:
98
85
85
85

For CN(CCO)c1ccc(Nc2cc(NC3CC3)n3ncc(C#N)c3n2)cc1-n1cnnc1 the compound record lists Activity as 97

====

Would you kindly list IC50 for each of these compounds?
# tested-on: Casein kinase II subunit alpha' (Homo sapiens, UniProt P19784)
# test-name: Inhibition of NLuc-fused CSNK2A2 (unknown origin) expressed in HEK293 cells incubated for 2 hrs by NanoBRET assay
# Format: cell-based
Give bare numbers, in nM.

Check out these entries, answers already filled in.
N#Cc1cnn2c(NC3CC3)cc(Nc3cccc(Cn4cnnc4)c3)nc12
3980
N#Cc1cnn2c(Nc3ccn(CCN4CCOCC4)n3)cc(Nc3cccc(-n4cnnc4)c3)nc12
79.4
Cc1nncn1-c1cccc(Nc2cc(NC3CC3)n3ncc(C#N)c3n2)c1
39.8
N#Cc1cnn2c(NC3CC3)cc(Nc3cc(-n4cnnc4)c(N4CC[C@H](N)C4)cc3F)nc12
251
CS(=O)(=O)Nc1cccc(Nc2cc(NC3CC3)n3ncc(C#N)c3n2)c1
126

Fill in IC50 for each of the 6 compounds listed.
1. CN1CCN(c2ccc(Nc3cc(NC4CC4)n4ncc(C#N)c4n3)cc2-n2cnnc2)CC1
2. N#Cc1cnn2c(NC3CC(F)(F)C3)cc(Nc3cccc(-n4cnnc4)c3)nc12
3. CNCCn1cnc(Nc2cc(Nc3cccc(-n4cnnc4)c3)nc3c(C#N)cnn23)c1
4. CS(=O)(=O)Cc1cccc(Nc2cc(NC3CC3)n3ncc(C#N)c3n2)c1
5. CN[C@@H]1CCCN(c2ccc(Nc3cc(NC4CC4)n4ncc(C#N)c4n3)cc2-n2cnnc2)C1
6. CN(C)CCn1cnc(Nc2cc(Nc3cccc(-n4cnnc4)c3)nc3c(C#N)cnn23)c1

Solution:
158
398
1580
50.1
794
501
